Origin of measurements: the supplement of paper PMC10724198

- System: Saccharomyces cerevisiae;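 note: PSI is a weighted mean of sequencing reads over stability bins, variants kept only with over 10 reads, mCherry proximal and sfGFP distal, peptide attached via GGGS linker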
- methodDescription: protein stability index of tFT-peptide fusion (C-terminal peptide) (PSI (0-1 scale)); higher = more stable (slower turnover)
- assayContext: genetic background: das1 deletion; temperature: 37 C
Threshold check on protein stability index: at or above 0.5 gives Condition met, strictly below gives Condition not met.

*Q* Decide: is the reported value of protein stability index for `PISNMSIILLFL` equal to or greater than 0.5?
*A* Condition met

*Q* Is protein stability index for `IIIGTLLYVNVR` at or above 0.5?
*A* Condition not met

*Q* Entry `FVWWFFFLSVVS` : is its protein stability index no less than 0.5?
*A* Condition not met

*Q* Decide: protein stability index of `VPIIVVVYVFVT` >= 0.5?
*A* Condition not met

*Q* Assess whether reported protein stability index for `VFLSCFFVSWVV` sits at 0.5 or higher.
*A* Condition not met

*Q* Answer whether protein stability index of `VYDVSVGVAVVG` is greater than or equal to 0.5.
*A* Condition met

*Q* Assess whether reported protein stability index for `LCLPLYIRILSF` sits at 0.5 or higher.
*A* Condition not met

*Q* Identify whether the reported protein stability index of the following sequence is 0.5 or greater: `VWWWGGVGWLMV`
*A* Condition met

*Q* Kindly determine if protein stability index recorded for `YCILGSYRLCVG` is above or exactly 0.5.
*A* Condition not met

*Q* Hi team, for `VSPPPLSPPLSR` , is the recorded protein stability index at or above 0.5?
*A* Condition met

*Q* Form field: protein stability index at least 0.5? Entry: `VFWISRLYLASY`
*A* Condition met

*Q* # check: protein stability index of `PWGSHLYYVVCI` is greater than or equal to 0.5
*A* Condition not met

*Q* Does the sequence `IRSRGLLIRWLS` have recorded protein stability index that is 0.5 or more?
*A* Condition met

*Q* Could you please find out whether `YRNVLLVLNYWS` has protein stability index that meets 0.5 or exceeds it?
*A* Condition met

*Q* Please check the record `RKWLFFRSWRYV` and state if its protein stability index is at or above 0.5.
*A* Condition met

*Q* I'd appreciate it if you could say whether `GWRGVVLVFVLV` has protein stability index at least equal to 0.5.
*A* Condition not met

*Q* hey, is protein stability index for this one >= 0.5? `RTWFTYMSIPVW`
*A* Condition not met

*Q* I'd appreciate it if you could say whether `VCWVYESWKCLA` has protein stability index at least equal to 0.5.
*A* Condition met

*Q* Kindly determine if protein stability index recorded for `PPGSPPGSLRPT` is above or exactly 0.5.
*A* Condition met

*Q* Identify whether the reported protein stability index of the following sequence is 0.5 or greater: `VACTCILVALVV`
*A* Condition not met

*Q* Quick check, protein stability index >= 0.5? `LSSRGGRCRRLV`
*A* Condition met

*Q* Check the entry `WGRAADRRRRLG` : does protein stability index equal or exceed 0.5?
*A* Condition met

*Q* Could you please find out whether `LGSYIFVVVIYF` has protein stability index that meets 0.5 or exceeds it?
*A* Condition not met

*Q* I'd appreciate it if you could say whether `APPSFPPLLLLS` has protein stability index at least equal to 0.5.
*A* Condition met

*Q* Given `VGGGGRFWVCVG` , state whether its protein stability index is at least 0.5.
*A* Condition met

*Q* Is it the case that `VVRAVLCVCASV` has protein stability index reaching or exceeding 0.5?
*A* Condition met

*Q* Form field: protein stability index at least 0.5? Entry: `FVRCFWPFVFVF`
*A* Condition not met

*Q* Confirm if protein stability index reported for the sequence `GVCLGFICVGFC` is 0.5 or above.
*A* Condition met

*Q* In plain terms: is recorded protein stability index at least 0.5 for `VYRVTGSWLMWV` ?
*A* Condition met

*Q* Check this sequence for protein stability index at or above 0.5: `SCFDRQIFVPVC`
*A* Condition not met

*Q* Check the entry `VGDFFVLVGFVA` : does protein stability index equal or exceed 0.5?
*A* Condition met
